tested on: TTR; assay: TTR editing in primary cyno hepatocytes treated with LNP formulated Spy Cas9 mRNA (SEQ ID NO: 2) and sgRNAs, 12.5 ng mRNA; assay type: cell-based, cynomolgus monkey; details: LNP formulated Spy Cas9 mRNA (SEQ ID NO: 2) and cyno matched sgRNA, lysed 72 hours post treatment
Strand notation (5' to 3'): a small letter for the sugar, then the base; units joined by * are phosphorothioate-linked, units joined directly phosphodiester-linked; [ ] holds rarer units or linkages, { } end groups; capitals alone tell only the bases. m = 2'-O-methyl; r = 2'-OH (RNA)
parameter_measured: 12.5 ng mRNA, 3.9 nM sgRNA, Avg % Edit (%)
# value in %; strip the unit string

Some solved entries appear below for comparison.
- molecule: "G000502: TTR Cyno specific sgRNA modified sequence, SEQ ID NO: 114; guide sequence of CR000689; cross homologous between mouse and cyno (nucleic acid) guide: mA*mC*mA*rCrArArArUrArCrCrArGrUrCrCrArGrCrGrGrUrUrUrUrArGrAmGmCmUmAmGmAmAmAmUmAmGmCrArArGrUrUrArArArArUrArArGrGrCrUrArGrUrCrCrGrUrUrArUrCrAmAmCmUmUmGmAmAmAmAmAmGmUmGmGmCmAmCmCmGmAmGmUmCmGmGmUmGmCmU*mU*mU*mU"
  12.5 ng mRNA, 3.9 nM sgRNA, Avg % Edit / %: 80.70
- molecule: "G000510: TTR Cyno specific sgRNA modified sequence, SEQ ID NO: 122; guide sequence of CR005370 (nucleic acid) guide: mA*mC*mU*rUrGrUrCrUrUrCrUrCrUrArUrArCrCrCrArGrUrUrUrUrArGrAmGmCmUmAmGmAmAmAmUmAmGmCrArArGrUrUrArArArArUrArArGrGrCrUrArGrUrCrCrGrUrUrArUrCrAmAmCmUmUmGmAmAmAmAmAmGmUmGmGmCmAmCmCmGmAmGmUmCmGmGmUmGmCmU*mU*mU*mU"
  12.5 ng mRNA, 3.9 nM sgRNA, Avg % Edit / %: 61.87

Below: the item to evaluate.
Value of 12.5 ng mRNA, 3.9 nM sgRNA, Avg % Edit reported for the molecule G000506: TTR Cyno specific sgRNA modified sequence, SEQ ID NO: 118; guide sequence of CR005366 (nucleic acid) guide: mA*mU*mA*rCrCrArGrUrCrCrArGrCrGrArGrGrCrArGrGrUrUrUrUrArGrAmGmCmUmAmGmAmAmAmUmAmGmCrArArGrUrUrArArArArUrArArGrGrCrUrArGrUrCrCrGrUrUrArUrCrAmAmCmUmUmGmAmAmAmAmAmGmUmGmGmCmAmCmCmGmAmGmUmCmGmGmUmGmCmU*mU*mU*mU is 60.13
